Target: Dual specificity mitogen-activated protein kinase kinase 1 (Homo sapiens)
Sequence (Q02750 whole entry): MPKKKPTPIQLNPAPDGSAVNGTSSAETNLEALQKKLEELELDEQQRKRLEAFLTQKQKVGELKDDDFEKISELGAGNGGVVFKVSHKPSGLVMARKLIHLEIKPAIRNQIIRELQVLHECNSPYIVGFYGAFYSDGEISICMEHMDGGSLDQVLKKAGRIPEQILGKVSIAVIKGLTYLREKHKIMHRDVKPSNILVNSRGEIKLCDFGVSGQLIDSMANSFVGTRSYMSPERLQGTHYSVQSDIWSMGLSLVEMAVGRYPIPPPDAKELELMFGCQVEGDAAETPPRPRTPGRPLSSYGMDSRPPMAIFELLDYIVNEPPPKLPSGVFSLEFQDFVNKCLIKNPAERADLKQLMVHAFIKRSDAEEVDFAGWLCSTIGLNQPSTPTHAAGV
Assay: Inhibition of MEK1 (unknown origin)

{"structure": "CC(=O)c1ccc(N2CCN(C(=O)CN3CC[C@@H](C(=O)Nc4ccc(O)c(Cl)c4)C3)CC2)cc1", "IC50": "> 20 µM"}

###

Biological target: Inhibitor of nuclear factor kappa-B kinase subunit beta (Homo sapiens, UniProt O14920)
Sequence (O14920 whole entry): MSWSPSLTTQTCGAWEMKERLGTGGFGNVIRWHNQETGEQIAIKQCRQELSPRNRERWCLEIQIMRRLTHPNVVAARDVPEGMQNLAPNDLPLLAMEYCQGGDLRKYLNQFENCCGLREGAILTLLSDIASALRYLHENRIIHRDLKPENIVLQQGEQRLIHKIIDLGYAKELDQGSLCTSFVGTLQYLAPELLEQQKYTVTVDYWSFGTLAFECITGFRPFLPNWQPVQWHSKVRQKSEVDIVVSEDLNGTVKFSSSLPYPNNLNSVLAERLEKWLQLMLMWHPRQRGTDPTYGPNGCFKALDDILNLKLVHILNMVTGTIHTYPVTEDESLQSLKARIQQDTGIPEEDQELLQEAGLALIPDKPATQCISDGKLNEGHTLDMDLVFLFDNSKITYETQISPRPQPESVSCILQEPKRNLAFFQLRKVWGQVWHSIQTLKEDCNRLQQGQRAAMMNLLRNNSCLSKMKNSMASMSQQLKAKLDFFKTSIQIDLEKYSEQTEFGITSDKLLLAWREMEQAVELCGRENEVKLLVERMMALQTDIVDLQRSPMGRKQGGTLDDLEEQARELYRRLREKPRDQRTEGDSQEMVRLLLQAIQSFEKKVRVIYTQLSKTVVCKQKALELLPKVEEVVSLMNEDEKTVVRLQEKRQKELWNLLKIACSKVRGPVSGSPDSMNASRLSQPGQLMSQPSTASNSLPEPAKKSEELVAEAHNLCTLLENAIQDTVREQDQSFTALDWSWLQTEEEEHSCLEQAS
Assay: Inhibition of IKKbeta (unknown origin)
pIC50: −log10 of the molar value.

{"structure": "CC(=O)c1ccc(N2CCN(C(=O)CN3CC[C@@H](C(=O)Nc4ccc(O)c(Cl)c4)C3)CC2)cc1", "experimental_target": "Inhibitor of nuclear factor kappa-B kinase subunit beta (Homo sapiens, UniProt O14920)", "pIC50": "< 4.52"}

###

Target: Interleukin-1 receptor-associated kinase 4 (Homo sapiens)
Sequence (Q9NWZ3 whole entry): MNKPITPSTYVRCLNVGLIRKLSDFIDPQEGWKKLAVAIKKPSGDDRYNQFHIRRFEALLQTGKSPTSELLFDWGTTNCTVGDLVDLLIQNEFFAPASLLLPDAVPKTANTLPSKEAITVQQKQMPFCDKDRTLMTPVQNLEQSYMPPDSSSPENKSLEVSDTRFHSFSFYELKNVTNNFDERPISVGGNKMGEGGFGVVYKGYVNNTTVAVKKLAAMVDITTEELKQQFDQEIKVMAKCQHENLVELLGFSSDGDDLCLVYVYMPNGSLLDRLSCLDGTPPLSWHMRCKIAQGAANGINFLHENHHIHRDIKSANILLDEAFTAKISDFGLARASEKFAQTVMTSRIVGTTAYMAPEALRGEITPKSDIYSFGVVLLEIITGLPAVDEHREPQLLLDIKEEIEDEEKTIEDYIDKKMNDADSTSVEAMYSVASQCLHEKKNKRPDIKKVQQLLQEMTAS

{"structure": "CC(=O)c1ccc(N2CCN(C(=O)CN3CC[C@@H](C(=O)Nc4ccc(O)c(Cl)c4)C3)CC2)cc1", "IC50": "> 30 µM"}

###

Biological target: Mitogen-activated protein kinase 11 (Homo sapiens)
Sequence (Q15759 whole entry): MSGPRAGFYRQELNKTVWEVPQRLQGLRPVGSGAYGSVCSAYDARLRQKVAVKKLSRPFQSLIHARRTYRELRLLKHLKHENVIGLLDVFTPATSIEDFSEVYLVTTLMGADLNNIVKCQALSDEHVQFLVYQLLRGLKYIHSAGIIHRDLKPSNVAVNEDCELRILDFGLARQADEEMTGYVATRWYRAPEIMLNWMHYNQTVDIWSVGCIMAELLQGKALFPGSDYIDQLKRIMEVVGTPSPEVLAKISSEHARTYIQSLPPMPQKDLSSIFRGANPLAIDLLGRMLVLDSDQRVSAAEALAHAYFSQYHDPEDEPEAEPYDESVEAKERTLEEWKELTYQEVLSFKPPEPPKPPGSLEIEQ
Assay: Inhibition of p38beta (unknown origin)
pIC50: −log10 of the molar value.

{"structure": "CC(=O)c1ccc(N2CCN(C(=O)CN3CC[C@@H](C(=O)Nc4ccc(O)c(Cl)c4)C3)CC2)cc1", "experimental_target": "Mitogen-activated protein kinase 11 (Homo sapiens)", "pIC50": "< 4.30"}

###

Molecular target: Mitogen-activated protein kinase 1 (Mus musculus)
Test: Inhibition of inactive ERK2 (mouse) coupled with human MEK1 using IMAP peptide substrate after 30 mins by coupled ERK2 assay
test_readout: log10 IC50 (log10 of the value in nM)

{"molecule": "CC(=O)c1ccc(N2CCN(C(=O)CN3CCC(C(=O)Nc4ccc(O)cc4)C3)CC2)cc1 (racemic)", "test_readout": "log10 IC50", "quantitative_readout": 3.60}
{"molecule": "O=C(Nc1ccc(O)c(Cl)c1)[C@@H]1CCN(CC(=O)N2CCN(c3ccc(Br)cc3)CC2)C1", "test_readout": "log10 IC50", "quantitative_readout": 3.70}
{"molecule": "O=C(Nc1ccc(O)cc1)C1CCN(CC(=O)N2CCN(c3cccc(Cl)c3)CC2)C1 (racemic)", "test_readout": "log10 IC50", "quantitative_readout": 3.53}
{"molecule": "O=C(Nc1ccc(O)c(Cl)c1)[C@@H]1CCN(CC(=O)N2CCN(c3ccc(-c4ccccc4)cc3)CC2)C1", "test_readout": "log10 IC50", "quantitative_readout": 3.75}
{"molecule": "O=C(Nc1ccc(O)c(Cl)c1)[C@@H]1CCN(CC(=O)N2CCN(c3ccc(-c4ccoc4)cc3)CC2)C1", "test_readout": "log10 IC50", "quantitative_readout": 3.15}
{"molecule": "CC(=O)c1ccc(N2CCN(C(=O)CN3CC[C@@H](C(=O)Nc4ccc(O)c(F)c4)C3)CC2)cc1", "test_readout": "log10 IC50", "quantitative_readout": 3.11}
{"molecule": "CC(=O)c1ccc(N2CCN(C(=O)CN3CC[C@@H](C(=O)Nc4ccc(O)c(Br)c4)C3)CC2)cc1", "test_readout": "log10 IC50", "quantitative_readout": 2.64}
{"molecule": "CC(=O)c1ccc(N2CCN(C(=O)CN3CCC(C(=O)Nc4ccc(O)c(Cl)c4)C3)CC2)cc1 (racemic)", "test_readout": "log10 IC50", "quantitative_readout": 3.08}

###

Biological target: Mitogen-activated protein kinase 1 (Homo sapiens, UniProt P28482)
Sequence (P28482 whole entry): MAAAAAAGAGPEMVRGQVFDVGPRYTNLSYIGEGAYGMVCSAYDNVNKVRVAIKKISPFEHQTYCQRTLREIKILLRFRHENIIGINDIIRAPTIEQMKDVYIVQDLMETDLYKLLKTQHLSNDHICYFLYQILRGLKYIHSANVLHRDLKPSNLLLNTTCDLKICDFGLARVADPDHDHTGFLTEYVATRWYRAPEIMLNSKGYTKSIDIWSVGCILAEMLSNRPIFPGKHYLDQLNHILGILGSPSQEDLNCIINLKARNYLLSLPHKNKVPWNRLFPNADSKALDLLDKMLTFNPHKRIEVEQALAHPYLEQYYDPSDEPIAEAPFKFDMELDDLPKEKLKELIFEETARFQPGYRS
Experiment: Binding to unphosphorylated ERK2 (unknown origin) by temperature dependent fluorescence (TdF) assay
test_readout: log10 of Kd (log10 of the value in nM)

{"compound": "O=C(Nc1ccc(O)c(Cl)c1)[C@@H]1CCN(CC(=O)N2CCN(c3ccc(-c4ccoc4)cc3)CC2)C1", "log10 of Kd": 2.08}
{"compound": "O=C(Nc1ccc(O)c(Cl)c1)[C@@H]1CCN(CC(=O)N2CCN(c3ccc(-c4ccccc4)cc3)CC2)C1", "log10 of Kd": 2.18}
{"compound": "O=C(Nc1ccc(O)c(Cl)c1)[C@@H]1CCN(CC(=O)N2CCN(c3ccc(Br)cc3)CC2)C1", "log10 of Kd": 2.97}
{"compound": "O=C(Nc1ccc(O)c(Cl)c1)[C@@H]1CCN(CC(=O)N2CCN(c3cccc(Cl)c3)CC2)C1", "log10 of Kd": 1.85}
{"compound": "O=C(Nc1ccc(O)c(Cl)c1)[C@@H]1CCN(CC(=O)N2CCN(c3nc4ccccc4s3)CC2)C1", "log10 of Kd": 2.23}
{"compound": "CC(=O)c1ccc(N2CCN(C(=O)CN3CC[C@@H](C(=O)Nc4ccc(O)c(Cl)c4)C3)CC2)cc1", "log10 of Kd": 1.70}
{"compound": "CC(=O)c1ccc(N2CCN(C(=O)CN3CCC(C(=O)Nc4ccc(O)c(Cl)c4)C3)CC2)cc1 (racemic)", "log10 of Kd": 2.18}
{"compound": "CC(=O)c1ccc(N2CCN(C(=O)CN3CC[C@H](C(=O)Nc4ccc(O)c(Cl)c4)C3)CC2)cc1", "log10 of Kd": 2.56}
{"compound": "CC(=O)c1ccc(N2CCN(C(=O)CN3CC[C@@H](C(=O)Nc4ccc(O)c(F)c4)C3)CC2)cc1", "log10 of Kd": 2.45}
{"compound": "CC(=O)c1ccc(N2CCN(C(=O)CN3CCC(C(=O)Nc4ccc(O)cc4)C3)CC2)cc1 (racemic)", "log10 of Kd": 3.03}
{"compound": "O=C(Nc1ccc(O)cc1)C1CCN(CC(=O)N2CCN(c3cccc(Cl)c3)CC2)C1 (racemic)", "log10 of Kd": 2.96}
{"compound": "O=C(Nc1ccc(O)c(Cl)c1)[C@@H]1CCN(CC(=O)N2CCN(c3ccc(-c4ccsc4)cc3)CC2)C1", "log10 of Kd": 2.46}

###

Test: Cytotoxicity against human A375SM cells expressing BRAF mutant after 3 days by proliferation assay
Assay type: functional, cell-based
Conditions: A375-SM, 72 h

{"structure": "CC(=O)c1ccc(N2CCN(C(=O)CN3CC[C@@H](C(=O)Nc4ccc(O)c(Cl)c4)C3)CC2)cc1", "unit_text": "µM", "IC50": 11.5}

###

Biological target: Dual specificity mitogen-activated protein kinase kinase; MEK1/2 (Homo sapiens) (UniProt P36507+Q02750)
Sequence (P36507 whole entry, looked up): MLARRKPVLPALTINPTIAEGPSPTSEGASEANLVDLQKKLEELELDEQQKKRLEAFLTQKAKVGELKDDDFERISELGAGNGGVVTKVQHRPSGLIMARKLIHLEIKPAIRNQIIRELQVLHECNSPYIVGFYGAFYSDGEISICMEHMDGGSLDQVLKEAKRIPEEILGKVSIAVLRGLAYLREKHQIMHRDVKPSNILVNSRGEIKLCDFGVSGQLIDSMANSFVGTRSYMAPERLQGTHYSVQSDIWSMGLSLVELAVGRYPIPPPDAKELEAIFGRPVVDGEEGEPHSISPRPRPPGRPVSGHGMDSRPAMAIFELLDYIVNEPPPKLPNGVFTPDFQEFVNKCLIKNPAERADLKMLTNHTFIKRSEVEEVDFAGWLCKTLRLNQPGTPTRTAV
Sequence (Q02750 whole entry, looked up): as the sequence (Q02750 whole entry) above
Assay: Binding affinity to unphosphorylated MEK (unknown origin) by temperature dependent fluorescence (TdF) assay
The source made the active and inactive calls. The rule behind the calls is not given here.

{"compound": "CC(=O)c1ccc(N2CCN(C(=O)CN3CC[C@@H](C(=O)Nc4ccc(O)c(Br)c4)C3)CC2)cc1", "Activity": "inactive"}
{"compound": "O=C(Nc1ccc(O)c(Cl)c1)[C@@H]1CCN(CC(=O)N2CCN(c3ccc(-c4ccccc4)cc3)CC2)C1", "Activity": "inactive"}
{"compound": "CC(=O)c1ccc(N2CCN(C(=O)CN3CC[C@@H](C(=O)Nc4ccc(O)c(Cl)c4)C3)CC2)cc1", "Activity": "inactive"}
{"compound": "CC(=O)c1ccc(N2CCN(C(=O)CN3CCC(C(=O)Nc4ccc(O)cc4)C3)CC2)cc1 (racemic)", "Activity": "inactive"}
{"compound": "O=C(Nc1ccc(O)c(Cl)c1)[C@@H]1CCN(CC(=O)N2CCN(c3ccc(-c4ccsc4)cc3)CC2)C1", "Activity": "inactive"}
{"compound": "O=C(Nc1ccc(O)c(Cl)c1)[C@@H]1CCN(CC(=O)N2CCN(c3cccc(Cl)c3)CC2)C1", "Activity": "inactive"}
{"compound": "CC(=O)c1ccc(N2CCN(C(=O)CN3CC[C@@H](C(=O)Nc4cc(Cl)c(O)c(Cl)c4)C3)CC2)cc1", "Activity": "inactive"}
{"compound": "O=C(Nc1ccc(O)c(Cl)c1)[C@@H]1CCN(CC(=O)N2CCN(c3ccc(Br)cc3)CC2)C1", "Activity": "inactive"}
{"compound": "O=C(Nc1ccc(O)cc1)C1CCN(CC(=O)N2CCN(c3cccc(Cl)c3)CC2)C1 (racemic)", "Activity": "inactive"}
{"compound": "O=C(Nc1ccc(O)c(Cl)c1)[C@@H]1CCN(CC(=O)N2CCN(c3ccc(-c4ccoc4)cc3)CC2)C1", "Activity": "inactive"}
{"compound": "CC(=O)c1ccc(N2CCN(C(=O)CN3CC[C@@H](C(=O)Nc4ccc(O)c(F)c4)C3)CC2)cc1", "Activity": "inactive"}
{"compound": "CC(=O)c1ccc(N2CCN(C(=O)CN3CCC(C(=O)Nc4ccc(O)c(Cl)c4)C3)CC2)cc1 (racemic)", "Activity": "inactive"}
{"compound": "CC(=O)c1ccc(N2CCN(C(=O)CN3CC[C@@H](C(=O)Nc4ccc(O)c(C)c4)C3)CC2)cc1", "Activity": "inactive"}
{"compound": "O=C(Nc1ccc(O)c(Cl)c1)[C@@H]1CCN(CC(=O)N2CCN(c3nc4ccccc4s3)CC2)C1", "Activity": "inactive"}
{"compound": "CC(=O)c1ccc(N2CCN(C(=O)CN3CC[C@@H](C(=O)Nc4ccc(O)cc4Cl)C3)CC2)cc1", "Activity": "inactive"}
{"compound": "CC(=O)c1ccc(N2CCN(C(=O)CN3CC[C@H](C(=O)Nc4ccc(O)c(Cl)c4)C3)CC2)cc1", "Activity": "inactive"}
